biological target: Gal(a1-3)Gal(b1-4)GlcNAc(b1-3)GalNAc; test: glycan array binding signal (z-score within array); higher = stronger binding; settings: glycan notation: IUPAC condensed, linker removed
The entries come from a sample that favours the strongest signals as a whole.
value.kind: glycan array binding signal (z-score)
The reply should be a number, written without any unit.

Documented glycan array binding signal (z-score) of MFG-E8 (Homo sapiens), Q08431 (protein) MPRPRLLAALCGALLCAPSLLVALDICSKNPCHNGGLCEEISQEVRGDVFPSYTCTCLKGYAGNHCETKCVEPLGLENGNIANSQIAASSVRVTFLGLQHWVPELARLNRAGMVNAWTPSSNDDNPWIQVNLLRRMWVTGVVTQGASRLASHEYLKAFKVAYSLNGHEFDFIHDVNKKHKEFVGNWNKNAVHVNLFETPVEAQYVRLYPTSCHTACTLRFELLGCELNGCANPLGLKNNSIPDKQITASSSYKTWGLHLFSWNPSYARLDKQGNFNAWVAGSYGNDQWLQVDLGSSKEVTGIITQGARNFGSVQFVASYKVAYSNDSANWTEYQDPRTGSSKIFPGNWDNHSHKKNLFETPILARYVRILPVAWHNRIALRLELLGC : -0.233
